Kindly state AC50 for each of the entries shown.
target: Beta-1 adrenergic receptor (Homo sapiens); assay type: functional; further: assay procedure not described here
Sequence (P08588 whole entry): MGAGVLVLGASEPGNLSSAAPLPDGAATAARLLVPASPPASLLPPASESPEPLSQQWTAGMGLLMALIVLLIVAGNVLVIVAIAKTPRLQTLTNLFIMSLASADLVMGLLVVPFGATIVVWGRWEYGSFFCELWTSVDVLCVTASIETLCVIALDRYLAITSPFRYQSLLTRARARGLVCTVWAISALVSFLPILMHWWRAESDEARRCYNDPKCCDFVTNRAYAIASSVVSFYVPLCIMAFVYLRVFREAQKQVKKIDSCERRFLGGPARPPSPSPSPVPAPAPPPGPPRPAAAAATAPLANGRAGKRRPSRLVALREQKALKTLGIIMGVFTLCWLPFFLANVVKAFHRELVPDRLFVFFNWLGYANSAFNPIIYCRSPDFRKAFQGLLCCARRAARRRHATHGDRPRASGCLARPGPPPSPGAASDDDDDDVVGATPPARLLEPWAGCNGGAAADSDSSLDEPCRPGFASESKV

## Input Look at this compound and give its reported AC50. O=C(C[S+]([O-])Cc1ccco1)NC/C=C\COc1cc(CN2CCCCC2)ccn1 (stereo not drawn)
## Output > 10 µM

## Input Entry "CC(=O)Oc1cccc2c1C(=O)c1c(OC(C)=O)cc(C(=O)O)cc1C2=O" : reported AC50 = ?
## Output > 30 µM

## Input Can you share its AC50? I mean this compound: "NS(=O)(=O)c1ccc(N2CCCCS2(=O)=O)cc1"
## Output > 30 µM

## Input Fill in the blank: the reported AC50 of "CN(C)[C@@H]1C(O)=C(C(=O)NCN2CCCC2)C(=O)[C@@]2(O)C(O)=C3C(=O)c4c(O)cccc4[C@@](C)(O)[C@H]3C[C@@H]12" is ____.
## Output > 10 µM

## Input Given CS(=O)(=O)Nc1ccc([N+](=O)[O-])cc1Oc1ccccc1 [NIMESULIDE] , state its recorded AC50.
## Output > 30 µM

## Input Consider the compound shown here: "C[C@]12CCC(=O)C=C1C=C[C@@H]1[C@@H]2CC[C@@]2(C)[C@H]1CC[C@@]21CCC(=O)O1" What is its recorded AC50?
## Output > 30 µM

## Input Quick one: AC50 for "CC[N+](CC)(CCNC(=O)C(=O)NCC[N+](CC)(CC)Cc1ccccc1Cl)Cc1ccccc1Cl" ?
## Output > 30 µM

## Input Field request: AC50 | item: "CCOC(=O)Nc1ccc(NCc2ccc(F)cc2)nc1N"
## Output > 30 µM

Where do the numbers come from? From ChEMBL document CHEMBL5291721.
